Molecular target: Kappa-type opioid receptor (Homo sapiens, UniProt P41145)
Sequence (P41145 whole entry): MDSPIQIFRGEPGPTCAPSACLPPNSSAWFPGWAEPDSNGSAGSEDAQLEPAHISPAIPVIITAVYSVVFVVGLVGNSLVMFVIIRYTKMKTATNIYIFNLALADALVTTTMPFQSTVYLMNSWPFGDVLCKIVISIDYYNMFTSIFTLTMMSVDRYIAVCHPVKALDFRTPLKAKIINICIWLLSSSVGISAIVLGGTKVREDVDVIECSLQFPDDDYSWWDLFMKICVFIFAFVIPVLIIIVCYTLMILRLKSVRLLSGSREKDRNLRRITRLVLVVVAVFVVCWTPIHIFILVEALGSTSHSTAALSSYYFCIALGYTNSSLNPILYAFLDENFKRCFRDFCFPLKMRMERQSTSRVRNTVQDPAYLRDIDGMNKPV
Assay: Agonist activity at kappa opioid receptor in ATP stimulated human HaCaT cells assessed as reduction in intracellular Ca2+ release at 1 uM after 45 mins by FURA-2AM dye based luminescence spectrophotometry method
Type: functional, cell-based
Activity calls are given as the source filed them. The rule behind the calls is not given here.

molecule: O=C(Cc1ccc(Cl)c(Cl)c1)N1CCN(Cc2cccnc2)C2CCCC(N3CCC(O)C3)C21 (mixture of isomers)
inhibition: Active
--
molecule: COC(=O)N1CCN(C(=O)Cc2ccc(Cl)c(Cl)c2)C2C(N3CCC(O)C3)CCCC21 (mixture of isomers)
inhibition: Active
--
molecule: O=C(Cc1ccc(Cl)c(Cl)c1)N1CCN(Cc2cccnc2)C2CCCC(N3CCCC3)C21 (racemic)
inhibition: Active
--
molecule: CN(C(=O)/C=C/c1ccoc1)[C@@H]1CC[C@@]2(O)[C@H]3Cc4ccc(O)c5c4[C@@]2(CCN3CC2CC2)[C@H]1O5
inhibition: 40%

---

Target: Kappa-type opioid receptor (Cavia porcellus, UniProt P41144)
Sequence (P41144 whole entry): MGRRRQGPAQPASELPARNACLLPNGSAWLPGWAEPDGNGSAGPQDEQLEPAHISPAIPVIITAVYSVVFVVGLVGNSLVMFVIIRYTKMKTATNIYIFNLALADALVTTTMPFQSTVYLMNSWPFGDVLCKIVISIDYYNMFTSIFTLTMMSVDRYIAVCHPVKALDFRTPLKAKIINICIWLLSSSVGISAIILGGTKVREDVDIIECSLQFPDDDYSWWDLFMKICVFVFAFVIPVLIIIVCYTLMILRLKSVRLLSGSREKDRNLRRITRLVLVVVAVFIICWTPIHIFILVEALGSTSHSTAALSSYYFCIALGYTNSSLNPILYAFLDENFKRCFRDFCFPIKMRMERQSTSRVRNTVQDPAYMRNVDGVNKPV
Assay: Displacement of [3H]U-69,593 from kappa opioid receptor in guinea pig brain membarnes by liquid scintillation counting method
pKi: −log10 of the molar value.

compound: O=C(Cc1ccc(Cl)c(Cl)c1)N1CCN(Cc2cccnc2)C2CCCC(N3CCCC3)C21 (racemic)
pKi: 9.89

---

Target: Kappa-type opioid receptor (Homo sapiens, UniProt P41145)
Assay: Agonist activity at human kappa opioid receptor expressed in HEK-293 cells after 45 mins by [35S]GTP-gamma-S binding assay in presence of 10 uM of GDP
pEC50: −log10 of the molar value.
reportedEndpoint: pEC50

molecule: COC(=O)N1CCN(C(=O)Cc2ccc(Cl)c(Cl)c2)C2C(N3CCC(O)C3)CCCC21 (mixture of isomers)
measurementTarget: Kappa-type opioid receptor (Homo sapiens, UniProt P41145)
measured: 7.10

---

Test: Distribution coefficient, logD between n-octonol and aqueous MOPS buffer at pH 7.4 by LC-MS analysis detection based shake flask method
Format: physicochemical
Conditions: n-octanol/aqueous MOPS buffer
reportedEndpoint: logD

molecule: O=C(Cc1ccc(Cl)c(Cl)c1)N1CCN(Cc2cccnc2)C2CCCC(N3CCCC3)C21 (racemic)
reportedEndpoint: logD
measured: 1.1

molecule: COC(=O)N1CCN(C(=O)Cc2ccc(Cl)c(Cl)c2)C2C(N3CCCC3)CCCC21 (stereo not given)
reportedEndpoint: logD
measured: 1.29

molecule: COC(=O)N1CCN(C(=O)Cc2ccc(Cl)c(Cl)c2)C2C(N3CCC(O)C3)CCCC21 (mixture of isomers)
reportedEndpoint: logD
measured: 1.31

molecule: O=C(Cc1ccc(Cl)c(Cl)c1)N1CCN(Cc2cccnc2)C2CCCC(N3CCC(O)C3)C21 (mixture of isomers)
reportedEndpoint: logD
measured: 1.26

molecule: O=C(Cc1ccc(Cl)c(Cl)c1)N1CCNC2CCCC(N3CCC(O)C3)C21 (mixture of isomers)
reportedEndpoint: logD
measured: 0.23

---

Assay: Distribution coefficient, logD between n-octonol and aqueous PBS buffer at pH 5.4 by LC-MS analysis detection based shake flask method
Format: physicochemical
Details: n-octanol/aqueous PBS buffer
reportedEndpoint: logD

compound: O=C(Cc1ccc(Cl)c(Cl)c1)N1CCNC2CCCC(N3CCC(O)C3)C21 (mixture of isomers)
measured: -2.47

compound: COC(=O)N1CCN(C(=O)Cc2ccc(Cl)c(Cl)c2)C2C(N3CCCC3)CCCC21 (stereo not given)
measured: 0.39

compound: O=C(Cc1ccc(Cl)c(Cl)c1)N1CCN(Cc2cccnc2)C2CCCC(N3CCCC3)C21 (racemic)
measured: -0.45

compound: COC(=O)N1CCN(C(=O)Cc2ccc(Cl)c(Cl)c2)C2C(N3CCC(O)C3)CCCC21 (mixture of isomers)
measured: 0.04

compound: O=C(Cc1ccc(Cl)c(Cl)c1)N1CCN(Cc2cccnc2)C2CCCC(N3CCC(O)C3)C21 (mixture of isomers)
measured: -0.39

Hey, just so you know, these numbers are from ChEMBL document CHEMBL3785048.
